Answer each item with its documented Ratio (-BP/+BP), DF-1,000,000.
Target: T1, interleukin 18 binding protein (IL-18BP) (UniProt O95998 31-194)
T1 sequence (looked up): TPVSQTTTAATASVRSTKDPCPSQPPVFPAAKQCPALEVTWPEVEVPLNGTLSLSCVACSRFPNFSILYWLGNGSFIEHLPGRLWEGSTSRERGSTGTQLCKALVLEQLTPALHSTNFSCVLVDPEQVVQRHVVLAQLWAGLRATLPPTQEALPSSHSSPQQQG
Assay: cell-based or functional assay

The recorded Ratio (-BP/+BP), DF-1,000,000 for entry IL-18 variant S36E, D37E, D40R, N41G, K53Y, S55F (ligand) YFGKLESKLSVIRNLNDQVLFIDQGNRPLFEDMTDEEMRRGAPRTIFIISMYYDFQPRGMAVTISVKSEKISTLSSENKIISFKEMNPPDNIKDTKSDIIFFQRSVPGHDNKMQFESSSYEGYFLASEKERDLFKLILKKEDELGDRSIMFTVQNED equals 1.06

The recorded Ratio (-BP/+BP), DF-1,000,000 for entry IL-18 variant K53H, S55Q (ligand) YFGKLESKLSVIRNLNDQVLFIDQGNRPLFEDMTDSDMRDNAPRTIFIISMYHDQQPRGMAVTISVKSEKISTLSSENKIISFKEMNPPDNIKDTKSDIIFFQRSVPGHDNKMQFESSSYEGYFLASEKERDLFKLILKKEDELGDRSIMFTVQNED equals 0.91

The recorded Ratio (-BP/+BP), DF-1,000,000 for entry IL-18 variant K8R, L9G, S10C, K53G, S55A, R104G (ligand) YFGKLESRGCVIRNLNDQVLFIDQGNRPLFEDMTDSDMRDNAPRTIFIISMYGDAQPRGMAVTISVKSEKISTLSSENKIISFKEMNPPDNIKDTKSDIIFFQGSVPGHDNKMQFESSSYEGYFLASEKERDLFKLILKKEDELGDRSIMFTVQNED equals 1.03
